- protocol-notes: Thermodynamic solubility of compound in buffer containing KH2PO4/Na2HPO4 with 1% v/v DMSO at pH 7.4 incubated for 24 hrs by spectrophotometric analysis
- Type: physicochemical
- particulars: KH2PO4/Na2HPO4 buffer, pH 7.4; read-out: Therm_solubility
outcome-measure: solubility thermodynamic at 24 h (µg/mL)

CC(C)(Oc1ccc(CCCOc2ccc(/C=C/c3ccccc3)cc2)cc1)C(=O)O | 26.9
CC(C)(Oc1ccc(CCOc2ccc(/N=N/c3ccccc3)cc2)cc1)C(=O)O | 25.5

1. CC(C)(Oc1ccc(CCCOc2ccc(C(=O)/C=C/c3ccccc3)cc2)cc1)C(=O)O
2. COc1ccc(/C=C/c2ccc(OCCCC(C)(C)C(=O)O)cc2)cc1
Short answer wanted: higher solubility thermodynamic at 24 h, 1 or 2 ? Use the label to indicate which entry you chose. 1

* * *

- protocol-notes: Thermodynamic solubility of compound in buffer containing KH2PO4/Na2HPO4 with 1% v/v DMSO at pH 6.8 incubated for 24 hrs by spectrophotometric analysis
- Format: physicochemical
- particulars: KH2PO4/Na2HPO4 buffer, pH 6.8; read-out: Therm_solubility
outcome-measure: solubility thermodynamic at 24 h (µg/mL)

CC(C)(Oc1ccc(CCCOc2ccc(C(=O)/C=C/c3ccccc3)cc2)cc1)C(=O)O | 16

I. CC(C)(Oc1ccc(CCOc2ccc(/N=N/c3ccccc3)cc2)cc1)C(=O)O
II. CC(C)(Oc1ccc(CCCOc2ccc(/C=C/c3ccccc3)cc2)cc1)C(=O)O
Of the two listed items, I and II , which carries the larger solubility thermodynamic at 24 h figure? Return value: the label identifying the chosen record. II

* * *

- protocol-notes: Solubility of the compound in water
- Format: physicochemical
outcome-measure: solubility (µg/mL)
Your answer is read as µg/mL, so omit the unit and give the number.

Which measured solubility value corresponds to CCN(C)C(=O)Oc1cccc([C@H](C)N(C)C)c1 ? 2040

* * *

- protocol-notes: Octanol/water partition coefficient, logP of compound by RP-UHPLC analysis
- Assay type: physicochemical
outcome-measure: logP

Here is how some compounds turned out for logP.
CC(C)(CCCOc1ccc(/C=C/c2ccccc2)cc1)C(=O)O | 6.95
CC(C)(Oc1ccc(CCCOc2ccc(C(=O)/C=C/c3ccccc3)cc2)cc1)C(=O)O | 6.55
CC(C)(Oc1ccc(CCOc2ccc(/N=N/c3ccccc3)cc2)cc1)C(=O)O | 6.63
COc1ccc(/C=C/c2ccc(OCCCC(C)(C)C(=O)O)cc2)cc1 | 6.08

I. CC(C)(Oc1ccc(Cl)cc1)C(=O)O [CLOFIBRIC ACID]
II. Cc1ccc(C)c(OCCCC(C)(C)C(=O)O)c1 [GEMFIBROZIL]
III. CC(C)(Oc1ccc(CCCOc2ccc(/C=C/c3ccccc3)cc2)cc1)C(=O)O
Task for the reader: rank each entry by its logP, from the minimum upward. Note for the reader: the ranking is given by listing the labels in the order requested. I, II, III

* * *

- protocol-notes: Kinetic solubility of compound in HDM-PAMPA with buffer containing 5% DMSO at pH 6.8 incubated for 5 hrs by spectrophotometric analysis
- Type: ADME
- particulars: HDM-PAMPA buffer, pH 6.8; read-out: Kinetic_solubility
outcome-measure: solubility kinetic at 5 h (µg/mL)

A. CC(C)(Oc1ccc(CCCOc2ccc(C(=O)/C=C/c3ccccc3)cc2)cc1)C(=O)O
B. CC(C)(Oc1ccc(CCOc2ccc(/N=N/c3ccccc3)cc2)cc1)C(=O)O
C. CC(C)(Oc1ccc(CCCOc2ccc(/C=C/c3ccccc3)cc2)cc1)C(=O)O
D. CC(C)(CCCOc1ccc(/C=C/c2ccccc2)cc1)C(=O)O
Order the 4 listed items from lowest to highest according to solubility kinetic at 5 h. Present the labels in the sequence the task asks for. D, C, A, B

* * *

- protocol-notes: Thermodynamic solubility of compound in buffer containing HCl/KCl with 1% v/v DMSO at pH 1.2 incubated for 24 hrs by spectrophotometric analysis
- Type: physicochemical
- particulars: HCl/KCl buffer, pH 1.2; read-out: Therm_solubility
outcome-measure: solubility thermodynamic at 24 h (µg/mL)
Use µg/mL as the unit, but write only the number.

Given Cc1ccc(C)c(OCCCC(C)(C)C(=O)O)c1 [GEMFIBROZIL] , state its recorded solubility thermodynamic at 24 h. 15.5

* * *

- protocol-notes: Apparent solubility of compound in fasted state simulated intestinal fluid at pH 6.5 by spectrophotometric analysis
- Assay type: physicochemical
outcome-measure: solubility (µg/mL)

# count of solved cases: 3
CC(C)(Oc1ccc(CCCOc2ccc(C(=O)/C=C/c3ccccc3)cc2)cc1)C(=O)O | 19.6
CC(C)(Oc1ccc(CCCOc2ccc(/C=C/c3ccccc3)cc2)cc1)C(=O)O | 24.8
CC(C)(CCCOc1ccc(/C=C/c2ccccc2)cc1)C(=O)O | 8.7

1. CC(C)(Oc1ccc(CCOc2ccc(/N=N/c3ccccc3)cc2)cc1)C(=O)O
2. COc1ccc(/C=C/c2ccc(OCCCC(C)(C)C(=O)O)cc2)cc1
Lab note: check whether 1 or 2 has the lower measured solubility. Kindly state the label of the option you pick. 2
(2: 7.13 µg/mL, 1: 63.5 µg/mL)

* * *

- protocol-notes: Kinetic solubility of compound in HDM-PAMPA with buffer containing 5% DMSO at pH 7.4 incubated for 5 hrs by spectrophotometric analysis
- Assay type: ADME
- particulars: read-out: Kinetic_solubility
outcome-measure: solubility kinetic at 5 h (µg/mL)

Answered examples (2):
COc1ccc(/C=C/c2ccc(OCCCC(C)(C)C(=O)O)cc2)cc1 | 7.32
CC(C)(Oc1ccc(CCCOc2ccc(C(=O)/C=C/c3ccccc3)cc2)cc1)C(=O)O | 67.6

1. CC(C)(CCCOc1ccc(/C=C/c2ccccc2)cc1)C(=O)O
2. CC(C)(Oc1ccc(CCOc2ccc(/N=N/c3ccccc3)cc2)cc1)C(=O)O
3. CC(C)(Oc1ccc(CCCOc2ccc(/C=C/c3ccccc3)cc2)cc1)C(=O)O
Descending sort on solubility kinetic at 5 h required. The reply should contain the labels ordered as requested. 2, 3, 1

* * *

- protocol-notes: Kinetic solubility of compound in HDM-PAMPA with buffer containing 5% DMSO at pH 1.2 incubated for 5 hrs by spectrophotometric analysis
- Type: ADME
- particulars: HDM-PAMPA buffer, pH 1.2; read-out: Kinetic_solubility
outcome-measure: solubility kinetic at 5 h (µg/mL)

1. CC(C)(Oc1ccc(CCCOc2ccc(/C=C/c3ccccc3)cc2)cc1)C(=O)O
2. Cc1ccc(C)c(OCCCC(C)(C)C(=O)O)c1
Lab notebook, comparison: 1 versus 2 , higher solubility kinetic at 5 h goes to which? Response format: the label of the selected entry. 2
(2: 33.2 µg/mL, 1: 0.89 µg/mL)

* * *

- protocol-notes: Apparent solubility of compound in fed state simulated intestinal fluid at pH 5 by spectrophotometric analysis
- Type: physicochemical
outcome-measure: solubility (µg/mL)

A. CC(C)(Oc1ccc(CCCOc2ccc(C(=O)/C=C/c3ccccc3)cc2)cc1)C(=O)O
B. CC(C)(CCCOc1ccc(/C=C/c2ccccc2)cc1)C(=O)O
Rank A against B by their solubility values and give the higher one. Write down the label attached to your selection. A

I. CC(C)(Oc1ccc(CCCOc2ccc(/C=C/c3ccccc3)cc2)cc1)C(=O)O
II. COc1ccc(/C=C/c2ccc(OCCCC(C)(C)C(=O)O)cc2)cc1
Between I and II , whose measured solubility reads higher? Your answer should be the label of the entry you select. I

* * *

- protocol-notes: Apparent solubility of compound in fed state simulated intestinal fluid at pH 5 by spectrophotometric analysis
- Assay type: physicochemical
outcome-measure: solubility

Would you mind telling me what solubility value was observed for CC(C)(Oc1ccc(CCOc2ccc(/N=N/c3ccccc3)cc2)cc1)C(=O)O ? > 100 µg/mL

Thanks! And CC(C)(Oc1ccc(Cl)cc1)C(=O)O ? > 50 µg/mL

Continue with Cc1ccc(C)c(OCCCC(C)(C)C(=O)O)c1 > 25 µg/mL

Where do the numbers come from? From ChEMBL document CHEMBL4373673.
